Target: Phosphodiesterase 4 (Mus musculus, UniProt Q8VBU5+Q3UEI1+O89084+Q01063)
Assay: Inhibition of [3H]rolipram binding to Phosphodiesterase 4 (PDE IV)
Type: protein assay
// classify: if (IC50 < 60 µM) Condition met else Condition not met

Query block: Given the entry COc1ccc(/C=C2\C(=O)N(C)c3ccc(Cl)cc32)cc1OC1CC2CCC1C2 (configuration not stated) , would its reported IC50 be below 60 µM?
Result block: Condition met

Query block: Given the entry COc1ccc(/C=C2/C(=O)N(C)c3ccc([N+](=O)[O-])cc32)cc1OC1CC2CCC1C2 (configuration not stated) , would its reported IC50 be below 60 µM?
Result block: Condition not met

Query block: Given the entry COc1ccc(/C=C2\C(=O)Nc3ccc(Br)cc32)cc1OC1CC2CCC1C2 (configuration not stated) , would its reported IC50 be below 60 µM?
Result block: Condition met

Query block: Given the entry COc1ccc(/C=C2/C(=O)Nc3ccccc32)cc1OC1CC2CCC1C2 (configuration not stated) , would its reported IC50 be below 60 µM?
Result block: Condition met

Query block: Given the entry COc1ccc(/C=C2\C(=O)Nc3ccccc32)cc1OC1CC2CCC1C2 (configuration not stated) , would its reported IC50 be below 60 µM?
Result block: Condition met

Query block: Given the entry COc1ccc(/C=C2\C(=O)N(C)c3ccc(Br)cc32)cc1OC1CC2CCC1C2 (configuration not stated) , would its reported IC50 be below 60 µM?
Result block: Condition met

Query block: Given the entry COc1ccc(/C=C2\C(=O)Nc3ccc([N+](=O)[O-])cc32)cc1OC1CC2CCC1C2 (configuration not stated) , would its reported IC50 be below 60 µM?
Result block: Condition not met

###

Biological target: Phosphodiesterase 4 (Homo sapiens, UniProt P27815+Q08499+Q07343+Q08493)
Test: Inhibition of Phosphodiesterase 4
Format: protein assay
Could you please report measured IC50 for the items listed next?
Express it in µM; write the number only.

Query block: State, for Phosphodiesterase 4 (Homo sapiens, UniProt P27815+Q08499+Q07343+Q08493), measured IC50 of the compound listed here: COc1ccc(/C=C2\C(=O)Nc3ccc(Br)cc32)cc1OC1CC2CCC1C2 (configuration not stated)
Result block: 1.7

Query block: State, for Phosphodiesterase 4 (Homo sapiens, UniProt P27815+Q08499+Q07343+Q08493), measured IC50 of the compound listed here: COc1ccc(/C=C2\C(=O)Nc3ccc([N+](=O)[O-])cc32)cc1OC1CC2CCC1C2 (configuration not stated)
Result block: 1.2

Query block: State, for Phosphodiesterase 4 (Homo sapiens, UniProt P27815+Q08499+Q07343+Q08493), measured IC50 of the compound listed here: COc1ccc(/C=C2/C(=O)Nc3ccccc32)cc1OC1CC2CCC1C2 (configuration not stated)
Result block: 0.48

Query block: State, for Phosphodiesterase 4 (Homo sapiens, UniProt P27815+Q08499+Q07343+Q08493), measured IC50 of the compound listed here: COc1ccc(/C=C2\C(=O)N(C)c3ccc(Br)cc32)cc1OC1CC2CCC1C2 (configuration not stated)
Result block: 3.6

Query block: State, for Phosphodiesterase 4 (Homo sapiens, UniProt P27815+Q08499+Q07343+Q08493), measured IC50 of the compound listed here: COc1ccc(/C=C2\C(=O)N(C)c3ccc(Cl)cc32)cc1OC1CC2CCC1C2 (configuration not stated)
Result block: 3.4

Query block: State, for Phosphodiesterase 4 (Homo sapiens, UniProt P27815+Q08499+Q07343+Q08493), measured IC50 of the compound listed here: COc1ccc(/C=C2\C(=O)Nc3ccccc32)cc1OC1CC2CCC1C2 (configuration not stated)
Result block: 3.7

Query block: State, for Phosphodiesterase 4 (Homo sapiens, UniProt P27815+Q08499+Q07343+Q08493), measured IC50 of the compound listed here: COc1ccc(/C=C2/C(=O)N(C)c3ccc([N+](=O)[O-])cc32)cc1OC1CC2CCC1C2 (configuration not stated)
Result block: 7.1

Sourced from ChEMBL document CHEMBL1128803
